# ASSAYED_SYSTEM: T1, cynomolgus transferrin receptor (TfR) ectodomain (ECD) (cynomolgus, UniProt Q5RDH6 121-760 (Pongo abelii entry), biotinylated where captured on streptavidin)
# T1 construct: also called cyno TfR; cynoTfR
# T1 chain: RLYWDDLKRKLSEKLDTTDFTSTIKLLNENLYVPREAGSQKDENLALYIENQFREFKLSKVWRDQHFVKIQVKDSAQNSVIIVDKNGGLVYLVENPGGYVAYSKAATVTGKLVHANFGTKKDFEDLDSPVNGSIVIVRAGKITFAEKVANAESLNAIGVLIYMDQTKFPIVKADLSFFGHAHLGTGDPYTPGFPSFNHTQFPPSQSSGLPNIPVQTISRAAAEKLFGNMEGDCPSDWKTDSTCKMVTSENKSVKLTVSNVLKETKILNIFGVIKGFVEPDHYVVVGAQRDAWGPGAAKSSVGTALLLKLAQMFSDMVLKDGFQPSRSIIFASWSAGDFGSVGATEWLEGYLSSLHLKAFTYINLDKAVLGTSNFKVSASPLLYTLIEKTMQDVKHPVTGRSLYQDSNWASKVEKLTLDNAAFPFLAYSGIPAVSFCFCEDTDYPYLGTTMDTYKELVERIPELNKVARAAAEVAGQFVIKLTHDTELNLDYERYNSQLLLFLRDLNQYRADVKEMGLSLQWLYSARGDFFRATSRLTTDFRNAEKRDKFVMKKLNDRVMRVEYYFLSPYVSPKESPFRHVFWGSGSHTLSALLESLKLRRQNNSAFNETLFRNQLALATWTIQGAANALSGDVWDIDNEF
# ASSAY_INFO: ELISA, Fc-Fab fusion titrated on plate-coated cyno TfR; OD650
MEASURED_PROPERTY: binding result

INSERT INTO assay_data (binder, result) VALUES
  ('Clone CH2C.8 (designed binder) PCPAPELLGGPSVFLFPPKPKDTLMISRTPEVTCVVVDPAFPPWEVKFNWYVDGVEVHNAKTKPREEEYYQNYRVVSVLTVLHQDWLNGKEYKCKVSNKALPAPIEKTISKAKGQPREPQVYTLPPSRDELTKNQVSLTCLVKGFYPSDIAVEWESNGQPENNYKTTPPVLDSDGSFFLYSKLTVDKSRWQQGNVFSCSVMHEALHNHYTQKSLSLSPGK', 'binds'),
  ('Clone CH2C.6 (designed binder) PCPAPELLGGPSVFLFPPKPKDTLMISRTPEVTCVVVDPKMPPWEVKFNWYVDGVEVHNAKTKPREEEYYTYYRVVSVLTVLHQDWLNGKEYKCKVSNKALPAPIEKTISKAKGQPREPQVYTLPPSRDELTKNQVSLTCLVKGFYPSDIAVEWESNGQPENNYKTTPPVLDSDGSFFLYSKLTVDKSRWQQGNVFSCSVMHEALHNHYTQKSLSLSPGK', 'binds'),
  ('Clone CH2C.2 (designed binder) PCPAPELLGGPSVFLFPPKPKDTLMISRTPEVTCVVVDPPSPPWEVKFNWYVDGVEVHNAKTKPREEEYYSNYRVVSVLTVLHQDWLNGKEYKCKVSNKALPAPIEKTISKAKGQPREPQVYTLPPSRDELTKNQVSLTCLVKGFYPSDIAVEWESNGQPENNYKTTPPVLDSDGSFFLYSKLTVDKSRWQQGNVFSCSVMHEALHNHYTQKSLSLSPGK', 'binds'),
  ('Clone CH2C.5 (designed binder) PCPAPELLGGPSVFLFPPKPKDTLMISRTPEVTCVVVDPQTVPWEVKFNWYVDGVEVHNAKTKPREEEYYSNYRVVSVLTVLHQDWLNGKEYKCKVSNKALPAPIEKTISKAKGQPREPQVYTLPPSRDELTKNQVSLTCLVKGFYPSDIAVEWESNGQPENNYKTTPPVLDSDGSFFLYSKLTVDKSRWQQGNVFSCSVMHEALHNHYTQKSLSLSPGK', 'binds'),
  ('Clone CH2C.3 (designed binder) PCPAPELLGGPSVFLFPPKPKDTLMISRTPEVTCVVVDPQTPPWEVKFNWYVDGVEVHNAKTKPREEEYYSNYRVVSVLTVLHQDWLNGKEYKCKVSNKALPAPIEKTISKAKGQPREPQVYTLPPSRDELTKNQVSLTCLVKGFYPSDIAVEWESNGQPENNYKTTPPVLDSDGSFFLYSKLTVDKSRWQQGNVFSCSVMHEALHNHYTQKSLSLSPGK', 'binds'),
  ('Clone CH2C.7 (designed binder, found on phage) PCPAPELLGGPSVFLFPPKPKDTLMISRTPEVTCVVVDPPVPPWEVKFNWYVDGVEVHNAKTKPREEEYYSNYRVVSVLTVLHQDWLNGKEYKCKVSNKALPAPIEKTISKAKGQPREPQVYTLPPSRDELTKNQVSLTCLVKGFYPSDIAVEWESNGQPENNYKTTPPVLDSDGSFFLYSKLTVDKSRWQQGNVFSCSVMHEALHNHYTQKSLSLSPGK', 'binds');
